Property: EC50; scope: individual compounds
- Procedure text: alpha-synuclein stem-loop luciferase translation blockers – H4 neuroglioma cells, luminescence, confirmation (AID 1988)
- Format: functional, cell-based
Active and inactive are the calls of the source.

# count of solved cases: 3
> print(dat)
                                test.smiles  measurement.name       assay.value
1  CCOC(=O)c1sc2nc(CSc3ccccc3)nc(N3CCCN(C)CC3)c2c1C              EC50  8.64 µM (active)
2  Cc1onc(-c2ccccc2Cl)c1C(=O)NC(=S)Nc1ccc(C(C)(C)C)cc1              EC50   107 µM (active)
3              O=C1CCCc2c1[nH]c1ccc(Cl)cc21              EC50   9.1 µM (active)

Now for a further compound.
Ask | Recorded EC50 of COc1cccc(-n2nc3c(S)nnc(C)c3c2C)c1 , please.
Reply | > 120 µM (not active)

###

Property: EC50; scope: individual molecules
- Procedure text: fluconazole-exposed Candida albicans growth modulators – fluorescence, retest, confirmation (AID 2467)
- Type: functional, cell-based
The source made the active and inactive calls.

> print(dat)
                                test.smiles              assay.value
1           CCCc1ccc(C(=O)NNc2ccc(F)cc2)cc1  > 38000 nM (not active)
2    Oc1ccc(/C=N/Nc2ccc(C(F)(F)F)cn2)c(O)c1  > 38000 nM (not active)
3  O=[N+]([O-])c1ccc(Cl)c(/C=C/c2cc(C(F)(F)F)nc(O)n2)c1         1800 nM (active)
4  O=C(Nc1cccc2ccccc12)c1ccc([N+](=O)[O-])o1         1510 nM (active)
5  CC1(C)CC(=O)C2=C(C1)OC1=C(C(=O)CC(C)(C)C1)C2c1cc([N+](=O)[O-])cc([N+](=O)[O-])c1O          221 nM (active)

Then this molecule:
Ask | // query EC50 value for entry CCCCCCc1c(C)nc(-n2[nH]c(C)c(CCO)c2=O)[nH]c1=O
Reply | 635 nM (active)

###

Examples of compounds with documented EC50 follow.
- System: Streptococcus sp. 'group A'
- Procedure text: Streptococcus pyogenes SK(-)GAS viability under kanamycin – luminescence, BacTiterGlo, confirmation, counter-screen for streptokinase expression inhibitor project, dose response (AID 1900)
- Format: functional, organism-based
The source made the active and inactive calls.

The cases that follow already have their EC50 on record.
> print(dat)
                                   compound       assay.value
1  CC(=O)NC(c1ccccc1)c1cc(Cl)c2cccnc2c1O (stereo unspecified)  1.73 µM (active)
2     Oc1c(Br)cc(Br)cc1/C=N/c1nc2c(s1)CCCC2  7.39 µM (active)
3  COc1ccc(-n2c(=O)c3c4c(sc3n3c(S)nnc23)CCC4)cc1  15.7 µM (active)

Ask | Form: Entry = CCOc1ccc(-c2nc3n(c(=O)c2C#N)CCCS3)cc1 | System = Streptococcus sp. 'group A' | EC50 = ____
Reply | 11.9 µM (active)

Ask | Lookup: EC50 / Streptococcus sp. 'group A' / O=C1c2cccc3c([N+](=O)[O-])ccc(c23)C(=O)N1O
Reply | 0.999 µM (active)

Ask | API: value(readout=EC50, system=Streptococcus sp. 'group A') for record Cc1ccc(-c2cc(-c3ccccc3)nc(N(C)N)n2)cc1
Reply | 14.6 µM (active)

###

- Target system: Sentrin-specific protease 6 (Homo sapiens);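 further: Luminescence-based dose-response confirmatory assay of SENP6 inhibition, following up an ultra-high-throughput screen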
- Sequence (Q9GZR1 whole entry): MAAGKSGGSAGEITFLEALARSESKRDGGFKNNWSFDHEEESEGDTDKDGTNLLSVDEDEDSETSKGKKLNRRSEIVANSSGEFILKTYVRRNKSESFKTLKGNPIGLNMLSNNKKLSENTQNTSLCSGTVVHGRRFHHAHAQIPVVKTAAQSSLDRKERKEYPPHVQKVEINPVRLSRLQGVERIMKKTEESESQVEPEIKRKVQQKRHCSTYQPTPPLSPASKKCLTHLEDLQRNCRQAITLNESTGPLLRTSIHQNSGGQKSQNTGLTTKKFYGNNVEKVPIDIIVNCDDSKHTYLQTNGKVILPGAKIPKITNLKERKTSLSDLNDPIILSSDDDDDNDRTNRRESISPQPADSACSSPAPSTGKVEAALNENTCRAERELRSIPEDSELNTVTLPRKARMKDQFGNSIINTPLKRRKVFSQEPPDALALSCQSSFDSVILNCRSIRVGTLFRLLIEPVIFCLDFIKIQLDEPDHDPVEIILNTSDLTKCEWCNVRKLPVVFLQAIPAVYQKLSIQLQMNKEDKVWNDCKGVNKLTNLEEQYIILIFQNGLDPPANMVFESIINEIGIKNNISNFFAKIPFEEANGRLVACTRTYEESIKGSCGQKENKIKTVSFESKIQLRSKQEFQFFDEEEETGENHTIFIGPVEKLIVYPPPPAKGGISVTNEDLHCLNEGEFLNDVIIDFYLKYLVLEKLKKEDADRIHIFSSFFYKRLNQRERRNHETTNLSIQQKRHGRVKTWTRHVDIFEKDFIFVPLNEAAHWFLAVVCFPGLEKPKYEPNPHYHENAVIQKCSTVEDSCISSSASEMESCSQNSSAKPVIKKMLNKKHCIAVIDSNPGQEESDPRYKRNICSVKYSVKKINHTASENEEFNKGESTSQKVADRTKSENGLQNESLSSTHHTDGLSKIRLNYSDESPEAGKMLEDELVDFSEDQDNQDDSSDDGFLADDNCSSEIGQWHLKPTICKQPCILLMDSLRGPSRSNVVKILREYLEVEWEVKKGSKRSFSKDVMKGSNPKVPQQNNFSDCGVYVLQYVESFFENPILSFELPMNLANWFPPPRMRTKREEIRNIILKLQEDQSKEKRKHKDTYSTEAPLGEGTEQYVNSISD
- Type: functional
Calls of active or inactive are those of the source.
Please reply with one of these outcomes: active, inactive

As a guide, the following entries are already answered.
> print(dat)
                                   compound  category
1  O=[N+]([O-])c1ccc(O)c(C2=NNC(c3ccccc3F)C2)c1 (stereo unspecified)    active
2     Clc1nc(-c2ccccn2)nc2scc(-c3ccccc3)c12    active
3           Fc1ccccc1SCc1nnc(-c2ccccc2Br)o1    active
4        Cc1nc2ccc(NC(=O)c3cc(Cl)ccn3)cc2s1    active

Ask | How was Oc1ccc(/C=C/c2ccnc3ccccc23)cc1 classified in this test?
Reply | inactive

Ask | Assay outcome for O=C(COC(=O)c1ccc([N+](=O)[O-])s1)NC(=O)NCc1ccccc1 : what was it?
Reply | active

Ask | Given COc1ccccc1N1CCN(/N=C/c2ccc([N+](=O)[O-])cc2)CC1 , state the outcome it received in this test.
Reply | active

Ask | Test call, this compound: O=C(Nc1ccc(Cl)c(Cl)c1)c1ccco1
Reply | active

Ask | Please state the recorded outcome for this compound: Cc1oc2c(c1C(=O)N1CCC(C)CC1)C(=O)c1ccccc1C2=O
Reply | active

Ask | Check the results log: what was the call for CN(CC(=O)Nc1ccc(Cl)cc1)C(=O)CNC(=O)c1ccc2ccccc2c1 ?
Reply | inactive

Ask | Would you mind telling me which call this test gave Cn1c(/C(C#N)=C/c2ccc(O)cc2)nc2ccccc21 ?
Reply | active

###

This listing pairs compounds with measured EC50.
- Procedure text: NIH3T3 cell viability loss – ATP luminescence, mouse fibroblasts, counter-screen, dose response (AID 2010);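 further: cells exposed to compound for about 90 hours before reading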
- Type: functional, cell-based

Reference set (3 entries):
> print(dat)
                                   compound           assay.value
1  O=C(NCC1CC1)c1cc([N+](=O)[O-])cc([N+](=O)[O-])c1  > 60 µM (not active)
2  COc1ccc(CN2CCCC(CNC(=O)c3ccc(F)cc3)C2)c(C)c1C (centres undefined)  > 30 µM (not active)
3  COc1ccccc1/C=C/CN1CCCC(CCC(=O)NCc2ccc(F)c(F)c2)C1 (centres undefined)  > 60 µM (not active)

Ask | Record request: EC50 value, item COc1ccc(N(C)S(=O)(=O)c2cccc(C(=O)NCC3CCCCC3)c2)cc1
Reply | > 30 µM (not active)

###

Below is a list of entries, each paired with its recorded IC50 value.
- Target system: Methionyl-tRNA synthetase, putative (Trypanosoma brucei brucei, UniProt Q38C91);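 further: Read-out by fluorescence polarization, run as a confirmatory high-throughput counterscreen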;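 further: potency of MetRS inhibitors measured by reduced AMP formation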
- Sequence (Q38C91 whole entry): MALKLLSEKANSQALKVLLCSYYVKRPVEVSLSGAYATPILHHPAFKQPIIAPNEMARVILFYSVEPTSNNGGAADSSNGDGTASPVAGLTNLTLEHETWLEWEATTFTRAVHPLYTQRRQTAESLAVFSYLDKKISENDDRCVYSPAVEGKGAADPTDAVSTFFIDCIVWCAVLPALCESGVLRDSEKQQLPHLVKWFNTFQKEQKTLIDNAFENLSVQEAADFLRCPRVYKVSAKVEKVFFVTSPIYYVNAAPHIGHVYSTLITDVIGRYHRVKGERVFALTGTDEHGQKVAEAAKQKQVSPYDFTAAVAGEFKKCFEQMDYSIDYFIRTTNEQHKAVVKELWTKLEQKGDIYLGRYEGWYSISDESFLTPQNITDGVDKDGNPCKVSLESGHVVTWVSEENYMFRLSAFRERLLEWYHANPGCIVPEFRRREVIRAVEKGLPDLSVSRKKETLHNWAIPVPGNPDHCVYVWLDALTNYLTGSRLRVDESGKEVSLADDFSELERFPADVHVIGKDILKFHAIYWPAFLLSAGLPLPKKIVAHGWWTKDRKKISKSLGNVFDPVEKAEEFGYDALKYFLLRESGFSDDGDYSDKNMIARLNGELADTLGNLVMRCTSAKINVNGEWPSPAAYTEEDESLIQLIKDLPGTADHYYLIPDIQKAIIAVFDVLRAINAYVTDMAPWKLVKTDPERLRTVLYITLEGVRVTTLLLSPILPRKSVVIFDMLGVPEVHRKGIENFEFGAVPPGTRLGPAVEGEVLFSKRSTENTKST
- Format: functional, Trypanosoma brucei brucei strain 927/4 GUTat10.1
Active and inactive are the calls of the source.

Would you please look over these solved cases?
> print(dat)
                                test.smiles         assay.value
1  CCOc1ccc(CONS(=O)(=O)c2ccc(NC(C)=O)cc2)cc1Cl  17.7 µM (inactive)
2  C/C(=N\Nc1nc2ccccc2[nH]1)c1ccc2c(c1)OCO2  28.2 µM (inactive)

Ask | Which value of IC50 has been reported for CCn1c(SCC(=O)c2c[nH]c3ccccc23)nc2cc(S(=O)(=O)N3CCOCC3)ccc21 in the records?
Reply | 12.2 µM (inactive)

Ask | Fill blank: measured IC50 of the molecule Cc1ccc(NC(=O)CN(C)C(=O)c2cc(S(=O)(=O)N(C)C)ccc2N2CCCC2)cc1 is ____.
Reply | 10.4 µM (inactive)

###

IC50 values, listed per item
- Target system: Caspase-3 (Homo sapiens, UniProt P42574);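 further: Dose-response selectivity test against caspase-3 for candidate inhibitors of sentrin-specific proteases (SENPs)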
- Assay type: functional
Calls of active or inactive are those of the source.

Ask | Need IC50, item O=C(COC(=O)c1ccc([N+](=O)[O-])s1)NC(=O)NCc1ccccc1
Reply | 13.7 µM (active)

Ask | Can you look up the measured IC50 of Fc1ccccc1SCc1nnc(-c2ccccc2Br)o1 for me?
Reply | 17.1 µM (active)

Ask | Give the measured IC50 of Clc1nc(-c2ccccn2)nc2scc(-c3ccccc3)c12 .
Reply | 7.37 µM (active)

Ask | So what does the record say about IC50 for Oc1ccc(/C=C/c2ccnc3ccccc23)cc1 ?
Reply | 34.5 µM (active)

###

- Procedure text: luciferase reporter signal suppression in cells – H4 neuroglioma cells, luminescence, dose response (AID 1990)
- Format: functional, cell-based
The source made the active and inactive calls.
// reported EC50 per item

> print(dat)
                                   compound  measurement.name            assay.value
1  Cc1c(CCC(=O)N2CCC[C@H]2C(=O)O)c(=O)oc2c(C)c3oc4c(c3cc12)CCCC4              EC50       15.9 µM (active)
2  COc1ccccc1-c1nnc2sc(-c3ccc(N(C)C)cc3)nn12              EC50      < 0.1 µM (active)
3  CC(NC(=O)COC(=O)c1ccc2c(c1)S(=O)(=O)N=C1CCCCCN12)C12CC3CC(CC(C3)C1)C2 (stereo not given)              EC50  > 120 µM (not active)
4   Cc1ccc(CNc2cc(-c3nn4c(C)nnc4s3)ccc2C)s1              EC50       9.69 µM (active)

Next compound, EC50 to be filled in.
Ask | What does the record list as EC50 for COc1cc([C@@H]2c3cc4c(cc3[C@H](O)[C@H]3COC(=O)[C@H]23)OCO4)cc(OC)c1OC ?
Reply | < 0.1 µM (active)

From: ChEMBL document CHEMBL1201862
